These measurements were taken from paper PMC3625961.

Assay system: CRF1 receptors (Rattus norvegicus, UniProt P35353)
Sequence (P35353 24-415): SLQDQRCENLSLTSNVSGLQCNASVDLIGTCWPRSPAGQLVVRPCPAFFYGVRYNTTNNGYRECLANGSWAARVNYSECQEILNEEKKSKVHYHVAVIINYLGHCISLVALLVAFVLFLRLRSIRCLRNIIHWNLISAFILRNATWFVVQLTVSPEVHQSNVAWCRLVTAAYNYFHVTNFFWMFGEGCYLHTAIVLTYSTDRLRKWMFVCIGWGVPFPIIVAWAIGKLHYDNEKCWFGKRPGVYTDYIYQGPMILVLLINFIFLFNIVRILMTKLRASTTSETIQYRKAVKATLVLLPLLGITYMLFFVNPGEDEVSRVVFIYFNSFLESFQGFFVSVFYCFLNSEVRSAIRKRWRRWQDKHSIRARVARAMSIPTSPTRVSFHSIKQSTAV
Experimental endpoint: pKi
Numbers only, as −log10 of the molar value.

# input Consider the compound `COCCN(CCOC)c1nc(C)nc2c(-c3c(OC)cc(Br)cc3OC)c(C)nn12` and give its measured pKi.
# output 9.82

---

Assay system: CRF1 receptor (Macaca mulatta, UniProt Q76LL8)
Sequence (Q76LL8 24-415): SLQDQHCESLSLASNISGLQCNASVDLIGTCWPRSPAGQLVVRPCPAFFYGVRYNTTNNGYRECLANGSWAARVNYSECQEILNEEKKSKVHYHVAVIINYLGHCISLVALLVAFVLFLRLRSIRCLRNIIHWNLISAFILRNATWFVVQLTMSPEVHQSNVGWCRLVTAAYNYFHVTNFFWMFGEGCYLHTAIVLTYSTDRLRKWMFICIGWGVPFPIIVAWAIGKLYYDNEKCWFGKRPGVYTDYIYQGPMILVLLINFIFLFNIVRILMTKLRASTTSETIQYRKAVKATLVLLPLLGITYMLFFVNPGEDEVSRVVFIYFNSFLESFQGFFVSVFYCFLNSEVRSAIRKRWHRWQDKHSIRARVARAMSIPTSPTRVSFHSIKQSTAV
Experimental endpoint: Ki (nM)
Give bare numbers, in nM.

# input Entry `COCCN(CCOC)c1nc(C)nc2c(-c3c(OC)cc(Br)cc3OC)c(C)nn12` : reported Ki = ?
# output 0.35

---

Assay system: CRF2 R (Rattus norvegicus, UniProt P47866)
Sequence (P47866 1-431 isoform P47866-2): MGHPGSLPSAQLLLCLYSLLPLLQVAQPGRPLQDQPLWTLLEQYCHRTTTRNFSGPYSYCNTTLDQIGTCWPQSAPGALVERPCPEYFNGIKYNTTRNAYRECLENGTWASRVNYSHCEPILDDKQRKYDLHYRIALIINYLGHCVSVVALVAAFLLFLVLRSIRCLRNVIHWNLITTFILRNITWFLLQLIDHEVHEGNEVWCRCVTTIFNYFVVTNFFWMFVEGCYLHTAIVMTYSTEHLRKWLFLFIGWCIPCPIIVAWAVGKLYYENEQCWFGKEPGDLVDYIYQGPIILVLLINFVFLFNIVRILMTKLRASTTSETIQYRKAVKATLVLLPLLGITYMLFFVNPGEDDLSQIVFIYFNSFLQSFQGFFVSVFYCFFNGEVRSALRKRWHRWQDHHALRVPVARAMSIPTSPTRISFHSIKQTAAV
Experimental endpoint: Ki

# input Need Ki, item `COCCN(CCOC)c1nc(C)nc2c(-c3c(OC)cc(Br)cc3OC)c(C)nn12`
# output > 1 µM
